Recorded inhibition for the following compounds
biological target: Solute carrier family 2, facilitated glucose transporter member 1 (Homo sapiens) (UniProt P11166); experiment: ST_JUDE_LEISH: Cytotoxicity at 2uM final concentration against transgenic Leishmania Mexicana promastigotes LmGLUT1 that are glucose transport deficient and complemented with the human glucose transporter GLUT1. Activity is measured by DNA content using SYBR green in vitro; assay type: functional
Sequence (P11166 whole entry): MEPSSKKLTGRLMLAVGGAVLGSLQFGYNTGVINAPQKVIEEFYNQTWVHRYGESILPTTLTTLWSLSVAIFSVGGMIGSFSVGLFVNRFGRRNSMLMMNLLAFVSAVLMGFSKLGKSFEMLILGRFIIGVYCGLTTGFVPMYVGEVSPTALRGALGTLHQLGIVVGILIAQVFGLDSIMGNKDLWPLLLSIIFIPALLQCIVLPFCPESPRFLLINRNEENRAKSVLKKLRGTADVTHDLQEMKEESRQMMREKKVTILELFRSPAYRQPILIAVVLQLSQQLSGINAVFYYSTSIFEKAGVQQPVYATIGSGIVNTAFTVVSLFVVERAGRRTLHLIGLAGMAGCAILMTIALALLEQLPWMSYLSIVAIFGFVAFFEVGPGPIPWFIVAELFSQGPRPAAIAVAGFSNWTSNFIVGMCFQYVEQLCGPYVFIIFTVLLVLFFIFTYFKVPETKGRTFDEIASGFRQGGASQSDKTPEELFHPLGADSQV

COMPOUND | inhibition (%)
O=C(NC1CCN(CCN2CCC(c3c[nH]c4ccccc34)CC2)CC1)c1ccc(-c2ccc(C(F)(F)F)cc2)cc1 | 59
CCCCc1ccc(C(=O)Nc2ccc3nc(N4CCN(C)CC4)cc(C)c3c2)cc1 | 2.19
Cn1cncc1C(=O)Nc1ccc(-c2cccc(-c3nc4cc(F)ccc4[nH]3)c2)cc1 | 3.54
Cc1cc(Nc2cccc(C(F)(F)F)c2)nc2ccc(NC(=O)c3ccc(=O)[nH]c3)cc12 | -0.79
NC(=O)COc1cccc2c1CCN(CCN1CCC(NC(=O)c3ccc(-c4ccc(Cl)cc4)cc3)CC1)C2 | 1.06
Cc1ccc(Nc2nc(N/N=C/c3cccc([N+](=O)[O-])c3)nc(Nc3ccccc3)n2)c(C)c1 | 2.34
CC(C)(CNC(=O)[C@@H]1CCCN(CCOc2ccc(Cl)cc2)C1)c1nc(-c2ccc(Cl)c(O)c2)c(-c2ccncc2)[nH]1 | -1.34
O=c1cc(NCCCNCc2ccc3c(c2)OC(F)(F)O3)[nH]c2ccccc12 | -0.44
CN(C)C(=O)c1ccc(CN(Cc2cccc(OC(C)(C)C)c2)Cc2ccc3c(c2)OCCO3)cc1 | 0.24
Nc1nc(-c2ccc3c(Nc4ccc(F)c(Cl)c4)ccnc3c2)cs1 | 3.22
CC(C)CCNC(=O)C1Cc2c([nH]c3cc(Br)ccc23)C2(CCN(CCc3ccccc3)CC2)N1 (configuration not stated) | 3.44
COc1ccc2c(NN=Cc3cccc(Cl)c3)ccnc2c1 | 0.29
O=C(N[C@@H](Cc1ccccc1)C(=O)NC1CCCCCC1)c1ccc(O)c(-c2ccc(Cl)c(Cl)c2)c1 | 3.99
O=C(CCc1cccnc1)Nc1cccc(-c2ccc(-c3nc4cc(C(F)(F)F)ccc4[nH]3)cc2)c1 | 9.2
CCOC(=O)c1ccc(NC(=O)Nc2cccc(-c3ccc(-c4nc5cc(C(F)(F)F)ccc5[nH]4)cc3)c2)cc1 | -0.08
CCOC(=O)c1cc(C(=O)NCCCCN2CCC(c3ccc4c(c3OC)CCCC4)CC2)ccc1-c1ccc(C(F)(F)F)cc1 | -2.37
N#Cc1c(N)nc(SCC(=O)Nc2cc(C(F)(F)F)ccc2Cl)c(C#N)c1-c1cccs1 | 1.06
COc1ccc(Nc2nccc(-c3c(-c4cccc(NC(=O)c5c(F)cccc5F)c4)nn4ccccc34)n2)cc1Cl | 0.2
COc1cccc(NC(=O)c2cc([N+](=O)[O-])ccc2NC(=O)CN2CCc3ccccc3C2)c1 | 4.59
CN=C(Nc1c(Cl)cccc1Cl)N(C)C | 2.85
Cc1cc(N[C@@H](Cc2ccccc2)C(=O)NCc2cccs2)nc(NCCc2ccc(F)cc2)n1 | 8.62
CNc1ccc(CNCc2cccc(-c3ccc(-c4nc5ccccc5[nH]4)s3)c2)cc1 | 1.37
N#Cc1cncc(-c2nc3c(N4CCN(c5cnccn5)CC4)cccc3n2CCNCc2ccccc2)c1 | 2.77
COc1ccc(Nc2nc(NCc3cccnc3)cc(-c3ccc(OC)cc3)n2)cc1 | -0.44
CCn1c(Cc2ccccc2)nnc1Sc1ccc([N+](=O)[O-])c(C#N)c1 | 5.75
NC(=O)c1ccc(C(=O)Nc2cccc(-c3csc(-c4nc5ccccc5[nH]4)c3)c2)cc1 | 9.88
CC(C)(C)c1ccccc1SC1=C(O)CC2(CCNCC2)OC1=O | 0.78
O=C(Nc1ccc(C(F)(F)F)cc1)c1cccc(S(=O)(=O)NC2CCN(Cc3ccccc3)C2)c1 (configuration not stated) | 4.37
CNC(=N)c1ccc(NC(=O)c2ccc(C(=O)Nc3ccc(C(=N)NC)cc3)cc2)cc1 | 1.44
Cc1cc(OCCCN2CCC(NS(=O)(=O)c3cccc(Br)c3)CC2)c2ccccc2n1 | 10.9
Cc1cccc2nc(-c3ccc(-c4cccc(CN5CCC(CO)CC5)c4)s3)[nH]c12 | 1.48
COCn1ccc2c3c(N)nc(N)nc3ccc21 | 0.07
Cc1cc(NC(=O)NCCN2CCC(NC(=O)c3cccc(Br)c3)C2)c2ccccc2n1 (configuration not stated) | 0.36
CCCC(C)NC(=O)c1cnn(-c2ccc(C(C)(C)C)cc2)c1OCc1ccc(Br)cc1 (configuration not stated) | 4.76
Nc1nc(N)c2cc(NS(=O)(=O)c3ccc(-c4ccccc4)cc3)ccc2n1 | 4.33
CS(=O)(=O)c1ccc(CCNCc2ccc(-c3ccc(CN(C(=O)C4CC(=O)c5ccccc54)C4Cc5ccccc5C4)cc3)nc2)cc1 (configuration not stated) | 1.52
CC(=O)Nc1ccc(CN2CCC(NC(=O)c3ccc(-c4cccc(Cl)c4)s3)CC2)cc1 | 2.01
